Below, each entry is listed with its recorded log10 IC50.
# study-system: calcium ion-activated chloride channel (Xenopus laevis, UniProt B5SVV6)
# Sequence (B5SVV6 entry or part of it): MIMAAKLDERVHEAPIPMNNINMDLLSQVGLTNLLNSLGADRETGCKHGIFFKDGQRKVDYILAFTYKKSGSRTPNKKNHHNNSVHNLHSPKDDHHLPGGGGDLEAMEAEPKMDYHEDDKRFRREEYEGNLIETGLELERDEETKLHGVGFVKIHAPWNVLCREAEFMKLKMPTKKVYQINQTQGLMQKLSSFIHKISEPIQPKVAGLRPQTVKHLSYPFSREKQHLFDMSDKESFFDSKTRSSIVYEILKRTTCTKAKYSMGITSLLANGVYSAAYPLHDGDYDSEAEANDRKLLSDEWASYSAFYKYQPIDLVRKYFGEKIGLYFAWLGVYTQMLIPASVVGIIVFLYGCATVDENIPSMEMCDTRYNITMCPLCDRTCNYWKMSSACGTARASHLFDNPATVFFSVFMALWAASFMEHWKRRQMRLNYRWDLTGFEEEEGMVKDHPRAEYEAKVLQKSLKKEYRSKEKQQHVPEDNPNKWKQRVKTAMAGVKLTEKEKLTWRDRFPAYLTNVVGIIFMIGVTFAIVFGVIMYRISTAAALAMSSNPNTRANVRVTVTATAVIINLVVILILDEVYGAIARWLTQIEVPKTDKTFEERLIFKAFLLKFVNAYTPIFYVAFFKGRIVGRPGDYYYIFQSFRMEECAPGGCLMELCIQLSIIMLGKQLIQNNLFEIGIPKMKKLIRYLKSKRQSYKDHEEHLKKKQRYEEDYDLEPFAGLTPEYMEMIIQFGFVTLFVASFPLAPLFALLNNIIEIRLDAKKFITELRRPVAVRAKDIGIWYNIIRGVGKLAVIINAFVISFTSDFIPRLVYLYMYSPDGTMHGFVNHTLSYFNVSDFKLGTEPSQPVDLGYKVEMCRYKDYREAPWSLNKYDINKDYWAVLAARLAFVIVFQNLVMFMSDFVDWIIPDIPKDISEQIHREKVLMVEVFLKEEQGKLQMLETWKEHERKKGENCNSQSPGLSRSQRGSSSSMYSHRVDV
# assay-text: Patch clamp method: two-electrode voltage clamp recording on Xenopus laevis eggs, calcium-dependent chloride channel blocking activity
# Assay type: cell-based
# experimental-setup: calcium ion-activated chloride channel, Xenopus laevis eggs, two-electrode voltage clamp
property-measured: log10 IC50 (log10 of the value in µM)

[
  {
    "molecule": "O=C(O)c1c(Nc2ccc(Br)c3ccccc23)cccc1[N+](=O)[O-] [Compound No. 70]",
    "log10 IC50": 0.93
  },
  {
    "molecule": "O=C(O)c1cc([N+](=O)[O-])ccc1Nc1ccc(I)c2ccccc12 [Compound No. 44]",
    "log10 IC50": 0.08
  },
  {
    "molecule": "O=C(O)c1ccc([N+](=O)[O-])cc1Nc1ccc(Cl)c2ccccc12 [Compound No. 33]",
    "log10 IC50": 0.68
  },
  {
    "molecule": "O=C(O)c1cccc([N+](=O)[O-])c1Nc1ccc(Cl)c2ccccc12 [Compound No. 29]",
    "log10 IC50": 1.22
  },
  {
    "molecule": "COc1ccc(Nc2cc([N+](=O)[O-])ccc2C(=O)O)c2ccccc12 [Compound No. 36]",
    "log10 IC50": 1.18
  },
  {
    "molecule": "COc1ccc2ccccc2c1Nc1ccc([N+](=O)[O-])cc1C(=O)O [Compound No. 45]",
    "log10 IC50": 0.96
  },
  {
    "molecule": "COc1cc(Nc2ccc([N+](=O)[O-])cc2C(=O)O)c2ccccc2c1 [Compound No. 46]",
    "log10 IC50": 0.26
  },
  {
    "molecule": "COc1cccc2c(Nc3ccc([N+](=O)[O-])cc3C(=O)O)cccc12 [Compound No. 48]",
    "log10 IC50": 0.96
  },
  {
    "molecule": "O=C(O)c1cc([N+](=O)[O-])ccc1Nc1ccc(Br)c2ccccc12 [Compound No. 43]",
    "log10 IC50": 0.18
  },
  {
    "molecule": "COc1ccc2cccc(Nc3ccc([N+](=O)[O-])cc3C(=O)O)c2c1 [Compound No. 50]",
    "log10 IC50": 0.53
  },
  {
    "molecule": "COc1cccc2cccc(Nc3ccc([N+](=O)[O-])cc3C(=O)O)c12 [Compound No. 51]",
    "log10 IC50": 0.93
  },
  {
    "molecule": "COc1ccc2c(Nc3ccc([N+](=O)[O-])cc3C(=O)O)cccc2c1 [Compound No. 49]",
    "log10 IC50": 0.06
  },
  {
    "molecule": "O=C(O)c1ccc([N+](=O)[O-])cc1Nc1ccc([N+](=O)[O-])c2ccccc12 [Compound No. 35]",
    "log10 IC50": 1.33
  },
  {
    "molecule": "O=C(O)c1cc([N+](=O)[O-])ccc1Nc1ccc(Cl)c2ccccc12 [Compound No. 42]",
    "log10 IC50": 0.90
  },
  {
    "molecule": "O=C(O)c1cc([N+](=O)[O-])ccc1Nc1cccc2ccccc12 [Compound No. 40, N-naphthyl-5-nitroanthranilic acid]",
    "log10 IC50": 0.70
  },
  {
    "molecule": "O=C(O)c1cc([N+](=O)[O-])ccc1Nc1ccc(F)c2ccccc12 [Compound No. 41]",
    "log10 IC50": 0.48
  },
  {
    "molecule": "COc1ccc(Nc2ccc([N+](=O)[O-])cc2C(=O)O)c2ccccc12 [Compound No. 47]",
    "log10 IC50": 0.36
  },
  {
    "molecule": "O=C(O)c1ccc(C(F)(F)F)cc1Nc1ccc(Cl)c2ccccc12 [Compound No. 66]",
    "log10 IC50": 0.76
  },
  {
    "molecule": "O=C(O)c1ccc([N+](=O)[O-])cc1Nc1ccc(Br)c2ccccc12 [Compound No. 34]",
    "log10 IC50": 1.00
  },
  {
    "molecule": "O=C(O)c1ccc([N+](=O)[O-])cc1Nc1cccc2ccccc12 [Compound No. 31, N-naphthyl-4-nitroanthranilic acid]",
    "log10 IC50": 0.93
  }
]
